target: Aβ42 (Homo sapiens, UniProt P05067); experiment: Th-T (thioflavin-T) assay of Aβ42 aggregation; type: biochemical; settings: Aβ42 aggregation time course, reading M125
Sequence (P05067 672-713): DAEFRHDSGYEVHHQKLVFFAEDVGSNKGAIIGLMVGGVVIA
If the reported Th-T fluorescence, mean of three wells equals or exceeds 3, assign True. If not, assign False.

INSERT INTO measurements (molecule, system, class_assignment) VALUES
  ('C=C1CCC2C(C)(CC(=O)C=C(C)C)C(O)CCC2(C)C1Cc1c(OC)oc(C)c(C)c1=O (centres unmarked)', 'Aβ42 (Homo sapiens, UniProt P05067)', 'True'),
  ('C=C1CCC2C(C)(CCC=C(C)C)C(O)CCC2(C)C1Cc1c(OC)oc(C)c(C)c1=O (centres unmarked) [Compound 11]', 'Aβ42 (Homo sapiens, UniProt P05067)', 'True'),
  ('C=C1CCC2C(C)(CCC=C(C)C)C(O)CCC2(C)C1Cc1c(OC)oc(CO)c(C)c1=O (centres unmarked)', 'Aβ42 (Homo sapiens, UniProt P05067)', 'False'),
  ('C=C1CC[C@H]2[C@]3(C)C[C@H](C=C(C)C)O[C@H]3CC[C@]2(C)[C@@H]1Cc1c(OC)oc(CO)c(C)c1=O', 'Aβ42 (Homo sapiens, UniProt P05067)', 'True'),
  ('C=C1CC[C@H]2[C@]3(C)C[C@H](C=C(C)C)O[C@H]3CC[C@]2(C)[C@@H]1Cc1c(OC)oc(C)c(C)c1=O', 'Aβ42 (Homo sapiens, UniProt P05067)', 'True'),
  ('C=C1CC[C@@H]2[C@](C)(CC[C@H]3O[C@H](C=C(C)C)C[C@@]23C)[C@@H]1Cc1c(OC)oc(CO)c(C(=O)OC)c1=O', 'Aβ42 (Homo sapiens, UniProt P05067)', 'False'),
  ('C=C1CC[C@H]2[C@]3(C)C[C@@H](C=C(C)C)O[C@H]3CC[C@]2(C)[C@@H]1Cc1c(OC)oc(CO)c(C)c1=O', 'Aβ42 (Homo sapiens, UniProt P05067)', 'True'),
  ('C=C1CC[C@H]2[C@]3(C)C[C@@H](C=C(C)C)O[C@H]3CC[C@]2(C)[C@@H]1Cc1c(O)c(C)c(C)oc1=O', 'Aβ42 (Homo sapiens, UniProt P05067)', 'False'),
  ('C=C1CC[C@@H]2[C@](C)(CC[C@H]3O[C@H](C=C(C)C)C[C@@]23C)[C@@H]1Cc1c(OC)oc(CO)c(C)c1=O', 'Aβ42 (Homo sapiens, UniProt P05067)', 'True'),
  ('C=C1CCC2C(C)(CC(=O)C=C(C)C)C(O)CCC2(C)C1Cc1c(O)c(C)c(C)oc1=O (centres unmarked)', 'Aβ42 (Homo sapiens, UniProt P05067)', 'True'),
  ('C=C1CCC2C(C)(CCC=C(C)C)C(O)CCC2(C)C1Cc1c(O)c(C)c(C)oc1=O (centres unmarked) [Compound 4]', 'Aβ42 (Homo sapiens, UniProt P05067)', 'False'),
  ('C=C1CCC2C(C)(CCC=C(C)C)C(=O)CCC2(C)C1Cc1c(O)c(C)c(C)oc1=O (centres unmarked)', 'Aβ42 (Homo sapiens, UniProt P05067)', 'False'),
  ('C=C1CCC2C(C)(CCC=C(C)C)C(O)CCC2(C)C1Cc1c(OC)oc(C)c(C(=O)OC)c1=O (centres unmarked)', 'Aβ42 (Homo sapiens, UniProt P05067)', 'False');
